Below, each entry is listed with its recorded reversed-phase LC retention time.
assay: reversed-phase LC retention time (C18, 15 min MeOH gradient); higher = more hydrophobic / later elution; settings: ionization mode: ESI+; ion species: [M+H]+

MOLECULE | reversed-phase LC retention time [min]
CCC1OC(=O)C(C)C(OC2CC(C)(OC)C(O)C(C)O2)C(C)C(OC2OC(C)CC(N(C)C)C2O)C(C)(O)CC(C)CN(C)C(C)C(O)C1(C)O (centres undefined) | 10.9
Oc1cccc2[nH]nnc12 [4-Hydroxybenzotriazole] | 5.99
CC(=O)CCc1ccc(O)cc1 [4-(4-Hydroxyphenyl)butan-2-one] | 11.7
Nc1nc2ccccc2[nH]1 | 5.92
COc1ccc2cc(C(C)C(=O)O)ccc2c1 (centres undefined) | 13.8
c1ccc2sc(NC3CCCCC3)nc2c1 | 14.1
CCCCc1c(C)nc(NCC)nc1OS(=O)(=O)N(C)C [Bupirimate] | 14.7
CCNC(=O)[C@@H](C)OC(=O)Nc1ccccc1 [Carbetamide] | 11
NCC1(CC(=O)O)CCCCC1 | 7.2

---

assay: collision cross section (TIMS, N2 drift gas) of the primary ion; higher = larger gas-phase ion size; conditions: ionization mode: ESI+; ion species: [M+H]+
# collision cross section listing for each entry below
READOUT LABEL: collision cross section (Å²)

COMPOUND | READOUT LABEL | ASSAY VALUE
COc1nc(C)nc(NC(=O)NS(=O)(=O)c2ccccc2Cl)n1 [Chlorsulfuron] | collision cross section | 177.23
CCOC(=O)CC(O)(CC(=O)OCC)C(=O)OCC [Triethylcitrate] | collision cross section | 159.4
CCCCc1nc(Cl)c(CO)n1Cc1ccc(-c2ccccc2-c2nn[nH]n2)cc1 [Losartan] | collision cross section | 201.04
CN(C)C(=O)NC1CCCCC1 [3-Cyclohexyl-1,1-dimethylurea] | collision cross section | 139.49
Nc1nc2ccccc2[nH]1 [2-Aminobenzimidazole] | collision cross section | 124.95
CCc1cccc(C)c1N(C(=O)C(=O)O)C(C)COC (configuration not stated) [Metolachlor OA] | collision cross section | 160
COC(=O)N(C(=O)N1CO[C@@]2(C(=O)OC)Cc3cc(Cl)ccc3C2=N1)c1ccc(OC(F)(F)F)cc1 [Indoxacarb] | collision cross section | 206.73
O=C1Nc2ccc(Cl)cc2C(c2ccccc2)=NC1O (configuration not stated) [Oxazepam] | collision cross section | 164.08
O=C1NC(=O)C2CC=CCC12 (configuration not stated) [Tetrahydrophthalimide] | collision cross section | 130.01
COc1ccc2cc(C(C)C(=O)O)ccc2c1 (configuration not stated) [Naproxen] | collision cross section | 151.76
CC(C)(C)Nc1nc(N)nc(O)n1 [2-Hydroxydesethylterbuthylazine] | collision cross section | 142.3
CCCCNC(=O)OCC#CI [3-Iodopropynyl butylcarbamate] | collision cross section | 147.73
CN(C)CC(c1ccc(O)cc1)C1(O)CCCCC1 (configuration not stated) [Venlafaxine-O-desmethyl] | collision cross section | 166.78
CCNc1ccc2c(C)cc(=O)oc2c1 [7-(Ethylamino)-4-methylcoumarin] | collision cross section | 142.36
Cc1cc(Cl)ccc1/N=C/N(C)C [Chlordimeform] | collision cross section | 145.93
Cc1ccccc1N=C(N)Nc1ccccc1C [1,3-Di-o-tolylguanidine] | collision cross section | 157.64
COC(=O)[C@H](C)N(C(=O)Cc1ccccc1)c1c(C)cccc1C [Benalaxyl] | collision cross section | 173.08
CC1(C)CC(NC(=O)c2cccc(C(=O)NC3CC(C)(C)NC(C)(C)C3)c2)CC(C)(C)N1 [Nylostab S-EED] | collision cross section | 235.31
CN(C)[C@@H]1C(O)=C(C(N)=O)C(=O)[C@@]2(O)C(O)=C3C(=O)c4c(O)cccc4[C@@](C)(O)[C@H]3[C@H](O)[C@@H]12 [Oxytetracycline] | collision cross section | 198.92
C[C@@H](CCC(=O)O)C1CCC2C3C(=O)CC4C[C@H](O)CC[C@]4(C)C3CC[C@@]21C (some centres not stated) [7-Oxolithocholic acid] | collision cross section | 204.58
CNC(=O)CSP(=O)(OC)OC [Omethoate] | collision cross section | 135.65
CC(C)N(C(=O)SCC(Cl)=C(Cl)Cl)C(C)C [Triallate] | collision cross section | 162.33
COC=C(C(=O)OC)c1ccccc1Oc1cc(Oc2ccccc2C#N)ncn1 [Azoxystrobin] | collision cross section | 196.56
CCN(CC)C(=O)C(C)Oc1cccc2ccccc12 (configuration not stated) [Napropamide] | collision cross section | 164.64
CCCc1nc2c(C)cc(-c3nc4ccccc4n3C)cc2n1Cc1ccc(-c2ccccc2C(=O)O)cc1 [Telmisartan] | collision cross section | 231.26
CN(C)C(=O)Nc1ccc(Oc2ccc(Cl)cc2)cc1 [Chloroxuron] | collision cross section | 175
CN1COCN(Cc2cnc(Cl)s2)/C1=N/[N+](=O)[O-] [Thiamethoxam] | collision cross section | 159.96
CN(C)c1nc(=O)n(C2CCCCC2)c(=O)n1C | collision cross section | 163.21
O=P1(N(CCCl)CCCl)NCCCO1 (configuration not stated) [Cyclophosphamide] | collision cross section | 147.43
NCC1(CC(=O)O)CCCCC1 [Gabapentin] | collision cross section | 139.22
COc1ccccc1Oc1c(NS(=O)(=O)c2ccc(C(C)(C)C)cc2)nc(-c2ncccn2)nc1OCCO [Bosentan] | collision cross section | 231.31
Cc1cccc(C)c1N(Cn1cccn1)C(=O)CCl [Metazachlor] | collision cross section | 159.2
CSc1nnc(C(C)(C)C)c(=O)n1N [Metribuzin] | collision cross section | 147.77
CC(C)NCC(O)COc1ccc(CC(N)=O)cc1 (configuration not stated) [Atenolol] | collision cross section | 157.6
COCC(C)N(C(=O)C(=O)O)c1c(C)csc1C (configuration not stated) [Dimethenamid OA] | collision cross section | 155.28
C[C@]12CCC(=O)C=C1CC[C@@H]1[C@@H]2CC[C@]2(C)C(=O)CC[C@@H]12 [4-Androstene-3,17-dione] | collision cross section | 172.73
C#CCOS(=O)OC1CCCCC1Oc1ccc(C(C)(C)C)cc1 (configuration not stated) [Propargite] | collision cross section | 195.16

---

experiment: reversed-phase LC retention time (C18, 15 min MeOH gradient); higher = more hydrophobic / later elution; conditions: ionization mode: ESI+; ion species: [M+H]+
Structures can show the parent of a compound that is named as a salt.
READOUT LABEL: reversed-phase LC retention time (min)

MOLECULE | UNIT DESCRIPTOR | ASSAY VALUE
O=C(CCc1ccc(O)cc1)c1c(O)cc(O)cc1O | min | 11.9
O=C(OC1CCCCC1)c1ccccc1C(=O)OC1CCCCC1 [Dicyclohexylphthalate] | min | 17.5
NC1=NCCN1Cc1ccc(Cl)nc1 | min | 6.21
CCNc1nc(NCC)nc(SC)n1 | min | 11.6
CCCCOC(=O)CC(O)(CC(=O)OCCCC)C(=O)OCCCC [Tri-n-butyl citrate] | min | 16.5
Nc1ccc(Cc2ccc(N)c(Cl)c2)cc1Cl | min | 13.8
O=C1Nc2ccc(Cl)cc2C(c2ccccc2Cl)=NC1O (centres undefined) | min | 13.2
CCNc1nc(N)nc(Cl)n1 | min | 8.1
O=C(CC(C(=O)OC1CCCCC1)S(=O)(=O)O)OC1CCCCC1 (centres undefined) [Dicyclohexyl sulfosuccinate] | min | 14.2

---

test: collision cross section (TIMS, N2 drift gas) of the primary ion; higher = larger gas-phase ion size; details: ionization mode: ESI+; ion species: [M+H]+

MOLECULE | UNIT DESCRIPTOR | collision cross section
CSc1nc(NC2CC2)nc(NC(C)(C)C)n1 [Irgarol] | Å² | 163.17
CC(C)(O)c1ccccc1CCC(SCC1(CC(=O)O)CC1)c1cccc(C=Cc2ccc3ccc(Cl)cc3n2)c1 (stereo not drawn) [Montelukast] | Å² | 243.08
CN(C)Cc1cc(C(C)(C)C)c(O)c(C(C)(C)C)c1 [2,6-Di-tert-Butyl-4-(dimethylamino)methylphenol] | Å² | 176.35
C[C@]12CC(=O)[C@H]3[C@@H](CCC4=CC(=O)CC[C@@]43C)[C@@H]1CC[C@@H]2O [11-Ketotestosterone] | Å² | 174.04
Cc1c(C=O)c(=O)n(-c2ccccc2)n1C [4-Formyl-antipyrine] | Å² | 144.44
Cc1ccc2[nH]nnc2c1 [5-Methyl-1H-benzotriazole] | Å² | 123.85
CCCCOC(=O)c1ccccc1C(=O)OCCCC [Dibutylphthalate] | Å² | 169.98
CC(C)c1ccc(NC(=O)N(C)C)cc1 [Isoproturon] | Å² | 151.88

---

Each entry below carries its recorded reversed-phase LC retention time.
assay: reversed-phase LC retention time (C18, 15 min MeOH gradient); higher = more hydrophobic / later elution; conditions: ionization mode: ESI+; ion species: [M+H]+

MOLECULE | UNIT DESCRIPTOR | reversed-phase LC retention time
COc1cc(C[C@H]2COC(=O)[C@@H]2Cc2ccc(O)c(OC)c2)ccc1O | min | 11.4
Nc1ccc(Sc2ccc(N)cc2)cc1 | min | 9.19
CCS(=O)CCSP(=O)(OC)OC (stereo not drawn) [Demeton-S-methyl sulfoxide] | min | 7.58
CN1CCN(C)C1=O | min | 6.07
CCCCCCCC/C=C\CCCCCCCCCCCC(N)=O [Erucamide] | min | 19.6
CCCCC(CC)COC(=O)c1ccc(Nc2nc(Nc3ccc(C(=O)OCC(CC)CCCC)cc3)nc(Nc3ccc(C(=O)OCC(CC)CCCC)cc3)n2)cc1 (stereo not drawn) | min | 19.5
CCC(C)(C)c1cc(-n2nc3ccccc3n2)c(O)c(C(C)(C)CC)c1 | min | 20.1
CN(Cc1cnc2nc(N)nc(N)c2n1)c1ccc(C(=O)N[C@@H](CCC(=O)O)C(=O)O)cc1 [Methotrexate] | min | 7.82
